For each of the compounds below, state its pKi.
test: Displacement of [125I]TZDM from amyloid beta (1 to 40) aggregates after 2 hrs by gamma counting
Note: pKi values are expressed as the negative base-10 logarithm of concentration in M.

Let me know recorded pKi for `O=C(/C=C/c1ccccc1)n1ccc2cc(I)ccc21` , thanks.
8.08

Let me know recorded pKi for `COc1ccc(/C=C/C(=O)n2ccc3cc(C)ccc32)cc1` , thanks.
6.99

Let me know recorded pKi for `O=C(/C=C/c1ccccc1)n1ccc2cc(Br)ccc21` , thanks.
7.72

Let me know recorded pKi for `O=C(/C=C/c1ccccc1)n1ccc2ccccc21` , thanks.
7.80

Let me know recorded pKi for `COc1ccc(/C=C/C(=O)n2ccc3cc(F)ccc32)cc1` , thanks.
7.49

Let me know recorded pKi for `COc1ccc(/C=C/C(=O)n2ccc3cc(OC)ccc32)cc1` , thanks.
7.22

Let me know recorded pKi for `COc1ccc(/C=C/C(=O)n2ccc3cc(Br)ccc32)cc1` , thanks.
7.60

Let me know recorded pKi for `COc1ccc(/C=C/C(=O)n2ccc3ccccc32)cc1` , thanks.
7.56

Let me know recorded pKi for `O=C(/C=C/c1ccccc1)n1ccc2cc(O)ccc21` , thanks.
7.67

Let me know recorded pKi for `Cc1ccc2c(ccn2C(=O)/C=C/c2ccccc2)c1` , thanks.
6.89

Let me know recorded pKi for `COc1ccc2c(ccn2C(=O)/C=C/c2ccccc2)c1` , thanks.
7.17

Let me know recorded pKi for `O=C(/C=C/c1ccccc1)n1ccc2cc(F)ccc21` , thanks.
7.49

* * *

For each of the compounds below, state its Ki.
assay: Binding affinity to amyloid beta fibrils
Please provide the amount together with its unit, number first.

Let me know recorded Ki for CC(C)Cc1ccc([C@@H](C)C(=O)O)cc1 [(R)-IBUPROPHEN] , thanks.
11.3 nM

Let me know recorded Ki for `COc1ccc2cc([C@H](C)C(=O)O)ccc2c1` , thanks.
5.7 nM

Let me know recorded Ki for `CC(C)Cc1ccc([C@H](C)C(=O)O)cc1` , thanks.
44.4 nM

* * *

experiment: Octanol-phosphate buffer partition coefficient, log D of the compound at pH 7.4; type: physicochemical
recorded-metric: logD
Form rule: numeric answer, no unit written next to it.

Let me know recorded logD for `O=C(/C=C/c1ccccc1)n1ccc2cc([125I])ccc21` , thanks.
2.53

Let me know recorded logD for `COc1ccc(/C=C/C(=O)n2ccc3cc([125I])ccc32)cc1` , thanks.
2.32

* * *

For each of the compounds below, state its pKi.
assay: Displacement of [125I]TZDM from amyloid beta (1 to 40) aggregates after 2 hrs by gamma counting
Note: pKi values are expressed as the negative base-10 logarithm of concentration in M.

Let me know recorded pKi for `COc1ccc(/C=C/C(=O)n2ccc3cc(Cl)ccc32)cc1` , thanks.
7.74

Let me know recorded pKi for `COc1ccc(/C=C/C(=O)n2ccc3cc(I)ccc32)cc1` , thanks.
7.99

Let me know recorded pKi for `O=C(/C=C/c1ccccc1)n1ccc2cc(Cl)ccc21` , thanks.
7.44

Taken from ChEMBL document CHEMBL1828568.
